Origin of values: patent US20250263408A1

pIC50: −log10 of the molar value.
Record type: pIC50 measurement. Applies to: Syk (Homo sapiens)
endpoint: pIC50

compound: Cn1cc(-c2cc3ncccc3c(OCC3CNCC(C)(C)O3)n2)cn1 (stereo not drawn) [Compound 2.13]
pIC50: 7.29

compound: C[C@@H]1CNC[C@@H](COc2nc(-c3cnn(C)c3)cc3ncccc23)O1 [Compound 2.76]
pIC50: 7.75

compound: CC(C)[C@H]1CNC[C@@H](COc2nc(-c3cnn(C(C)(C)C)c3)cc3ncccc23)O1 [Compound 2.104]
pIC50: 7.78

compound: Cn1ccc(-c2cc(OC[C@@H]3CNCC4(CC4)O3)c3cccnc3c2)c1 [Compound 3.17]
pIC50: 7.36

(1) CC(C)n1ccc(-c2cc(OC[C@@H]3CNCC4(CCC4)O3)c3nccnc3c2)c1 [Compound 8.17]
(2) COCCn1ccc(-c2cc(OC[C@@H]3CNCC4(CC4)O3)c3cccnc3c2)c1 [Compound 7.14]
(3) COCCn1ccc(-c2cc(OC[C@@H]3CNCC(C)(C)O3)c3nccnc3c2)c1 [Compound 8.4]
(4) CC(C)(C)n1cc(-c2cc3ncccc3c(OC[C@@H]3CNC[C@@H](C4CC4)O3)n2)cn1 [Compound 2.103]
Exam item: Order the records by pIC50, with each subsequent value no larger than the one before. Quick reminder: the answer is the labels in the order asked.
Marked response: 3, 1, 4, 2

(I) c1cnc2cc(-c3cnn(C4COC4)c3)nc(OC[C@@H]3CNCCO3)c2c1 [Compound 2.11]
(II) CC(C)n1cc(-c2cc(OC[C@@H]3CNCC(C)(C)O3)c3cccnc3c2)cn1 [Compound 3.6]
Exam item: Could you tell me which of I and II has the lower pIC50 reading? Your answer should be the label of the entry you select.
Marked response: I
